- assayed system: T1, ECF01_3473
- T1 chain: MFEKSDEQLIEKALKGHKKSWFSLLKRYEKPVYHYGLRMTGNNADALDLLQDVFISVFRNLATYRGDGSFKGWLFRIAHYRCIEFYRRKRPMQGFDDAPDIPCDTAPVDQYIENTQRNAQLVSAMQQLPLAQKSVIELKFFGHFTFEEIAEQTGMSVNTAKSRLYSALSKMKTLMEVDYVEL
fold repression by entry:
recorded endpoint: fold repression

{"columns": ["binder", "recorded endpoint", "readout number"],
 "data": [
  ["AS25_1645 (protein) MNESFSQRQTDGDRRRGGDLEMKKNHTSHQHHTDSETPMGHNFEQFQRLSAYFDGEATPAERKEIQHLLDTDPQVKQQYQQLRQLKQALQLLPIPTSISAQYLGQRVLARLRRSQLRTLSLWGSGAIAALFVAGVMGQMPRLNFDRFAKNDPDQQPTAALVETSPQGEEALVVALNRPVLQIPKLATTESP", "fold repression", 7.11],
  ["AS16_3622 (protein) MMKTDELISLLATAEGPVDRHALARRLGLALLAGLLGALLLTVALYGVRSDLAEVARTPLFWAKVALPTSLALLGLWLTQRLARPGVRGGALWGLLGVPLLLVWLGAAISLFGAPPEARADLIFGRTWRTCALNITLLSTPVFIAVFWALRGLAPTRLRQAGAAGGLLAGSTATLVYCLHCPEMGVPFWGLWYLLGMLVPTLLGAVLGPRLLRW", "fold repression", 2.63],
  ["AS01_3473 (protein) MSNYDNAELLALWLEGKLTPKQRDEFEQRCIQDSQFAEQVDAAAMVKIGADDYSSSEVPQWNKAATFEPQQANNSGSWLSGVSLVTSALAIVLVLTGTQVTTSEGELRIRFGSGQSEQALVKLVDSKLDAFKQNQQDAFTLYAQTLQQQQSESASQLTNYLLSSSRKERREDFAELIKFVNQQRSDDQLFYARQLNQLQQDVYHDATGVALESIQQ", "fold repression", 13],
  ["AS04_1609 (protein) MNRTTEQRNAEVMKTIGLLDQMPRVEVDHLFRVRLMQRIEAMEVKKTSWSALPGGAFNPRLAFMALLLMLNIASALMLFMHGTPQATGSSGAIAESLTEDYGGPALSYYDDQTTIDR", "fold repression", 4.75],
  ["AS16_973 (protein) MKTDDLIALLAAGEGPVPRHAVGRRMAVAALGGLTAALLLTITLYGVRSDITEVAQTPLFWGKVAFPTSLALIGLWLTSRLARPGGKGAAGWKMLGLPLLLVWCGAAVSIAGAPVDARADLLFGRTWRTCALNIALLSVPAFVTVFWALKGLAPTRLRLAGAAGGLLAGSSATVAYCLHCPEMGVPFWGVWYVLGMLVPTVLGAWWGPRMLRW", "fold repression", 0.602],
  ["AS30_35 (protein) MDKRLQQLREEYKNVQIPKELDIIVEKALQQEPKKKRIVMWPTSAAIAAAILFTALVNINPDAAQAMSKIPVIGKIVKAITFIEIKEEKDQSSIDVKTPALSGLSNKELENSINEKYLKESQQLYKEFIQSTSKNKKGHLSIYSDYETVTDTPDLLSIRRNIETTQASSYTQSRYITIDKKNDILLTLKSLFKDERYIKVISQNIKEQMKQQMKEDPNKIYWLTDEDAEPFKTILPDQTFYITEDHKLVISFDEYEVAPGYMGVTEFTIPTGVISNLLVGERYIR", "fold repression", 1.65],
  ["AS22_1147 (protein) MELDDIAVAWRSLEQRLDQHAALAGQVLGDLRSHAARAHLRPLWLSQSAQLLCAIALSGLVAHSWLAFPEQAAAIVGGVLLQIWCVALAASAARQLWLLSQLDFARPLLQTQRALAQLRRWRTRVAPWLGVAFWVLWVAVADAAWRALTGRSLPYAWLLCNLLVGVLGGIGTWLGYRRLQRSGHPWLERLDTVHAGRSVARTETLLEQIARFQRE", "fold repression", 3.03],
  ["AS20_992 (protein) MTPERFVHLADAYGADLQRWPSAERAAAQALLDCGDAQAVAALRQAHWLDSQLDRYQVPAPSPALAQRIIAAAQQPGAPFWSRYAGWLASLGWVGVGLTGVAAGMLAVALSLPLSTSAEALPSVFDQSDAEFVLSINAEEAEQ", "fold repression", 2.3],
  ["AS03_1244 (protein) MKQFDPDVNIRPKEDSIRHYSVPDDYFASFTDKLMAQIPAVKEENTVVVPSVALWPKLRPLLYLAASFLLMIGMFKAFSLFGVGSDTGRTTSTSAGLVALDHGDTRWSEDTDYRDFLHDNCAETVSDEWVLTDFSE", "fold repression", 2.13],
  ["AS02_915 (protein) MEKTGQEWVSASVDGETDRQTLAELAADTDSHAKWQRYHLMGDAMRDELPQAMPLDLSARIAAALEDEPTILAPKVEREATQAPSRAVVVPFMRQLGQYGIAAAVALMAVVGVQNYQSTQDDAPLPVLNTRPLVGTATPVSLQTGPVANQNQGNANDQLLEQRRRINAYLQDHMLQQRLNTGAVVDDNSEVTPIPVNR", "fold repression", 5.57],
  ["AS27_1331 (protein) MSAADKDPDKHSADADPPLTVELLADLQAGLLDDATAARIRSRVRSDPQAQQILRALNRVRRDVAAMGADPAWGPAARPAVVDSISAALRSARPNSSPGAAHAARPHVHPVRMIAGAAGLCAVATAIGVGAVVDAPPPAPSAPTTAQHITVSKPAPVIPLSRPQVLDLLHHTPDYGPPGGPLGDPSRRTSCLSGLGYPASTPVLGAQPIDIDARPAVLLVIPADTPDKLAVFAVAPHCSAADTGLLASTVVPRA", "fold repression", 2.69]
]}
